Property: combination Emax; scope: individual compounds
Test system: EW-16 (Ewing's Sarcoma)
Assay: combination Emax (second highest fraction inhibited in the dose matrix, 72 h); higher = more inhibition; extreme values may be limits of the assay
endpoint_name: combination Emax

INSERT INTO measurements (compound, result_number) VALUES
  ('Cc1cc2ncnn2cc1Nc1ncc2c(n1)n(C1CCOCC1)c(=O)n2C [AZD7648] + C=CCn1c(=O)c2cnc(Nc3ccc(N4CCN(C)CC4)cc3)nc2n1-c1cccc(C(C)(C)O)n1 [AZD1775] (first compound max 10 µM, partner max 1 µM)', 0.448),
  ('COc1cccc(OCCCN)c1-c1cc(Nc2cnc(C#N)cn2)n[nH]1 [Prexasertib] + CN(C)CCCOc1ccc(-c2ccc3ncc4c(c3c2)n(C2CCOCC2)c(=O)n4C)cn1 [AZD0156] (first compound max 1 µM, 7x7, partner max 1 µM)', 0.516),
  ('CC(=O)Nc1cccc(-n2c(=O)n(C3CC3)c(=O)c3c(Nc4ccc(I)cc4F)n(C)c(=O)c(C)c32)c1 [Trametinib] + Cc1nc(-c2cn3c(n2)-c2ccc(-c4cnn(C(C)(C)C(N)=O)c4)cc2OCC3)n(C(C)C)n1 [Taselisib] (first compound max 1 µM, 7x7, partner max 10 µM)', 0.604),
  ('CC1(C)CCC(CN2CCN(c3ccc(C(=O)NS(=O)(=O)c4ccc(NCC5CCOCC5)c([N+](=O)[O-])c4)c(Oc4cnc5[nH]ccc5c4)c3)CC2)=C(c2ccc(Cl)cc2)C1 [Venetoclax] + Cc1cc2ncnn2cc1Nc1ncc2c(n1)n(C1CCOCC1)c(=O)n2C [AZD7648] (first compound max 1 µM, 7x7, partner max 10 µM)', 0.193);
